Each recorded value in this set is attributed to ChEMBL document CHEMBL5528042.

target: Phosphatidylinositol 4,5-bisphosphate 3-kinase catalytic subunit alpha isoform (Homo sapiens); test: Inhibition of PI3Kalpha in human BT-474 cells incubated for 140 mins by ELISA
Sequence (P42336 whole entry, canonical isoform): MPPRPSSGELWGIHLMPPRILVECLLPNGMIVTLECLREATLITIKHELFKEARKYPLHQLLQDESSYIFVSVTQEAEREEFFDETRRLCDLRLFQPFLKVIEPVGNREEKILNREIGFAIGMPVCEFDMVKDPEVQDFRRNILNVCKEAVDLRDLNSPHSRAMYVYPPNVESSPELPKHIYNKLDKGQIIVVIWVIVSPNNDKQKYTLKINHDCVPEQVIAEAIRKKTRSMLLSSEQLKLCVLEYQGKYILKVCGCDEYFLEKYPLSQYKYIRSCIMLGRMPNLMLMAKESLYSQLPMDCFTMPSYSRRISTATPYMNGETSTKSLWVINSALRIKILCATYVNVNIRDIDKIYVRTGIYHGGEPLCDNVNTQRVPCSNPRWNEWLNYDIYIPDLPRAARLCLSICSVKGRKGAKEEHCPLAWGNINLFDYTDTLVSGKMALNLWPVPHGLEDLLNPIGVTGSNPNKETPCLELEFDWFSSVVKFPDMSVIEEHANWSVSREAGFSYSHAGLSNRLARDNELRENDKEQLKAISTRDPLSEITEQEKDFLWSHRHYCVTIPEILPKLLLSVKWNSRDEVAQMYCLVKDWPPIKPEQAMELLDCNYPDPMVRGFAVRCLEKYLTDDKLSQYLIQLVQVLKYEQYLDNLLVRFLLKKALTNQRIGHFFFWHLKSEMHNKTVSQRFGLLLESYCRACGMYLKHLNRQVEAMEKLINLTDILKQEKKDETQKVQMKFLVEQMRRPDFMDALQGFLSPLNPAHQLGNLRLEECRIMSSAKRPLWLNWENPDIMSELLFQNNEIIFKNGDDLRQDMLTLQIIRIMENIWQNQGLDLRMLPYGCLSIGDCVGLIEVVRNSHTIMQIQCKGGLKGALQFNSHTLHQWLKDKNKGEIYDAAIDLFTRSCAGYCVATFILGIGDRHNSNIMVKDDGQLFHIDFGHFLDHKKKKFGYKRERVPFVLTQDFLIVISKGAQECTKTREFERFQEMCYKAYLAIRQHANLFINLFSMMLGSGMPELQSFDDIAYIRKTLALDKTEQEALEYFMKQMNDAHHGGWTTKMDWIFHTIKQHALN
recorded metric: IC50 (µM)

CC(C)n1c(=O)n(C)c2cnc3cc(F)c(-c4ccc(OCCCN(C)C)nc4)cc3c21
15.8

[I] CC(C)n1c(=O)n(C)c2cnc3ccc(-c4ccc(N5CC[C@@H](N(C)C)C5)nc4)cc3c21
[II] CO[C@H]1C[C@H](n2c(=O)n(C)c3cnc4ccc(-c5ccc(OCCCN6CCCCC6)nc5)cc4c32)C1
# input Select the item with the higher value of IC50 from the options I and II listed. Give the label under which the chosen entry appears.
# output II
(II: 2 µM, I: 0.316 µM)
